Numbers sourced from patent US20240368135A1.

Target: human NaV 1.8 (Homo sapiens)
Sequence (Q9Y5Y9 126-399 limits assumed): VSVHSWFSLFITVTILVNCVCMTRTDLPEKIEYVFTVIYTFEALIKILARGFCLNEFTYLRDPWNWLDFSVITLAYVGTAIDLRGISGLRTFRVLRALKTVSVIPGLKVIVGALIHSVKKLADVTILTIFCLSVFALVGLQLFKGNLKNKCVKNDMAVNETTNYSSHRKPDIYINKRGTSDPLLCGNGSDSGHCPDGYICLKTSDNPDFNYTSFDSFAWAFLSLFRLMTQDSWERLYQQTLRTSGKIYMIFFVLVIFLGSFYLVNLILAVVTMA
Sequence (Q9Y5Y9 660-890 limits assumed): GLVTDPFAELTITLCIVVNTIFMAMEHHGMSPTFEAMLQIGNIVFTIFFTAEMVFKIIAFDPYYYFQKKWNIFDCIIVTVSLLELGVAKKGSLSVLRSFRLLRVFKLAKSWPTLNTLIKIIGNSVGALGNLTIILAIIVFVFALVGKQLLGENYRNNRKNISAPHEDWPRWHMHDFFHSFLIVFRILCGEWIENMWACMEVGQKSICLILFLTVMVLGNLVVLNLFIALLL
Sequence (Q9Y5Y9 1148-1722 limits assumed): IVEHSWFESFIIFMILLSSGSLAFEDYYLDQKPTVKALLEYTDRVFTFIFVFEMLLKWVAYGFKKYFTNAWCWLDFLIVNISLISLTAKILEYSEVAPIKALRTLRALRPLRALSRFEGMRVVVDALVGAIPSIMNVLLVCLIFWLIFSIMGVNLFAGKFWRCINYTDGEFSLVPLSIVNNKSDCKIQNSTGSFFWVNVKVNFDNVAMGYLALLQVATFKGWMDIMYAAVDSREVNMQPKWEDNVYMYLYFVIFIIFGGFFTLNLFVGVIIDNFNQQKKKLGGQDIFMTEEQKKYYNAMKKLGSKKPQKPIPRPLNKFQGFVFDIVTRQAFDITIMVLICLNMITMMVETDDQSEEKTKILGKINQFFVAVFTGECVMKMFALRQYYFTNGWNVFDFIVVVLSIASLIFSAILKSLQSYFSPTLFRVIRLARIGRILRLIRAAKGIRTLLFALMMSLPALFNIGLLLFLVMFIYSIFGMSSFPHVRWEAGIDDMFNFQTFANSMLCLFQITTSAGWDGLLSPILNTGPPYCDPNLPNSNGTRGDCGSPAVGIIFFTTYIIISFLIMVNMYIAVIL
Assay: E-VIPR assay detecting and measuring NaV inhibition properties
Assay type: cell-based
Settings: HEK cells expressing truncated human NaV 1.8; no human serum; read-out: IC50 in the E-VIPR Assay
pIC50: −log10 of the molar value.
Measurement type: pIC50

{"Molecule": "COc1c(C2C(C(=O)Nc3cncnc3)OC(C)(C(F)(F)F)C2C)ccc(F)c1F (single isomer, unassigned) [Compound 37]", "Measurement type": "pIC50", "Result": "≤ 6.00"}

Q: Please indicate pIC50 recorded for Cc1nnn2ccc(NC(=O)[C@@H]3O[C@@](C)(C(F)(F)F)[C@@H](C)[C@H]3c3ccc(F)c(F)c3OCCO)cc12 [Compound 574]
Ans: 7.00 to 8.00

Q: Output measured pIC50 for this item: COc1c([C@H]2[C@H](C(=O)Nc3ccnc(N4CCN[C@@H](C)C4=O)c3)O[C@@](C)(C(F)(F)F)[C@H]2C)ccc(F)c1F [Compound 485]
Ans: > 8.00

Q: State its pIC50: CCOc1c([C@H]2[C@H](C(=O)Nc3ccnc(C(O)CO)c3)O[C@@](C)(C(F)(F)F)[C@H]2C)ccc(F)c1F (single isomer, unassigned) [Compound 104]
Ans: > 8.00

Q: State its pIC50 for this molecule: COc1c([C@H]2[C@H](C(=O)Nc3cc(C4(N(C)C)COC4)ncc3F)O[C@@](C)(C(F)(F)F)[C@H]2C)ccc(F)c1F [Compound 363]
Ans: 7.00 to 8.00

Q: Give pIC50 for CCOc1c(C2C(C(=O)Nc3ccnc(S(C)(=N)=O)c3)OC(C)(C(F)(F)F)C2C)ccc(F)c1F (single isomer, unassigned) [Compound 110]
Ans: > 8.00
